biological target: ABCC4 (Homo sapiens); test: biochemical; format: biochemical; details: 28°C; Table 3; read-out: ABCC5 IC50 (Table 3)
Sequence (O15439 whole entry): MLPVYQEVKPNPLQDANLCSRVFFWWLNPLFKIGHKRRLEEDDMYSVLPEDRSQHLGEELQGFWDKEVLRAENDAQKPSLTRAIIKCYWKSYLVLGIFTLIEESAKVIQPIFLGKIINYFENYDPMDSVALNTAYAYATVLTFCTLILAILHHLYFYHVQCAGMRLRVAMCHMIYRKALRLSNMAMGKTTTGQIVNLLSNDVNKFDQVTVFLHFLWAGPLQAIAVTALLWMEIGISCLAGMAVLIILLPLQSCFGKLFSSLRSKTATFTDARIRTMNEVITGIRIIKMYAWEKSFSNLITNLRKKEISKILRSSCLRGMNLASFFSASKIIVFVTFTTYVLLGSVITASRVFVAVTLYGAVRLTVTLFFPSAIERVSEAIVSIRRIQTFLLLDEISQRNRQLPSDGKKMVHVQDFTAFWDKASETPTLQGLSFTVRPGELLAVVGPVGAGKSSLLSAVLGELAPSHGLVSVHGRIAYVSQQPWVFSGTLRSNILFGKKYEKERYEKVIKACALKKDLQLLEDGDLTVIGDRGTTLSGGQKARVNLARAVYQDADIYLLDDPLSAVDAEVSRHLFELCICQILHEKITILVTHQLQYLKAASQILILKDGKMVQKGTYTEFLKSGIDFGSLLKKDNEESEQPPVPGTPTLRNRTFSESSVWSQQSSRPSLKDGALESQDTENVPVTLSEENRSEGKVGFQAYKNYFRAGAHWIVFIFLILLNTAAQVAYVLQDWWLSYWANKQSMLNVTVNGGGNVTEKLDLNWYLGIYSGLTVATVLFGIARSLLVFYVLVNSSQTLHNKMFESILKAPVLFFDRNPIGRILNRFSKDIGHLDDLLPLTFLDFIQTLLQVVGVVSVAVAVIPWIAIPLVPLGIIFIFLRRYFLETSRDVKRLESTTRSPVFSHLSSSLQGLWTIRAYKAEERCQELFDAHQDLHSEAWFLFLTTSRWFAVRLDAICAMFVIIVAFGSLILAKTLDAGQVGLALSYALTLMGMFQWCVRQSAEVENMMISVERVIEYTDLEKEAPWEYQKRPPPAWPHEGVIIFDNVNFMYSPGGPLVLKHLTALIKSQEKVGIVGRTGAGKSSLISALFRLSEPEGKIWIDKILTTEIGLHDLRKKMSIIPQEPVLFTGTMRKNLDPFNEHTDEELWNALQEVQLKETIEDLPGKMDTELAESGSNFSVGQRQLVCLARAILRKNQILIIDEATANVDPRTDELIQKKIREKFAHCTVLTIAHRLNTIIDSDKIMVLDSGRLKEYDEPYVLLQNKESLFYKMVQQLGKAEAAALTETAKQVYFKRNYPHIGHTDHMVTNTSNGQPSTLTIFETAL
Observable: IC50
Write the numeric value and append its unit.

ABCC4 (Homo sapiens) / IC50 / C[C@@H]1CC(=O)NN=C1c1ccc(NN=C(C#N)C#N)cc1 : value?
27.2 µM

----------
target: PDE5 (Homo sapiens); construct: purchased Sigma-Aldrich, St. Louis, United States; experiment: Phosphodiesterase assay: inhibition of cGMP hydrolysis by recombinant PDE5; assay type: biochemical; details: 32°C; 5 µM cGMP, 30 min
Observable: IC50 (µM)
Numbers only, in µM.

What value of IC50 has been reported for the following compound? Nc1cc(-c2ccncc2)c[nH]c1=O
84.5

Attention now shifts to the item below.
What value of IC50 has been reported for the following compound? C[C@@H]1CC(=O)NN=C1c1ccc(NN=C(C#N)C#N)cc1
162
